tested on: NCI-H2126; test: relative viability (nuclei count vs DMSO), 5 days (fraction); higher = more cells survive; details: first compound 2 µM
Lab note: anything with relative viability below 0.6 is marked satisfied; values at 0.6 or higher are marked not satisfied.

# count of solved cases: 5
* CN1CCN(CCOc2cc(OC3CCOCC3)c3c(Nc4c(Cl)ccc5c4OCO5)ncnc3c2)CC1 [Saracatinib] + N=C(N)NC(=N)NCCc1ccccc1 [Phenformin] (partner 250 µM) | satisfied
* CN1CCN(CCOc2cc(OC3CCOCC3)c3c(Nc4c(Cl)ccc5c4OCO5)ncnc3c2)CC1 [Saracatinib] + Cc1cc(Nc2cc(N3CCN(C)CC3)nc(Sc3ccc(NC(=O)C4CC4)cc3)n2)n[nH]1 [Tozasertib] (partner 0.1 µM) | not satisfied
* Cc1csc(=NC2CCCCC2)n1/N=C/c1ccc(O)c(O)c1O [MIM1] + N=C(N)NC(=N)NCCc1ccccc1 [Phenformin] (partner 250 µM) | satisfied
* Cc1csc(=NC2CCCCC2)n1/N=C/c1ccc(O)c(O)c1O [MIM1] + Cc1cc(Nc2cc(N3CCN(C)CC3)nc(Sc3ccc(NC(=O)C4CC4)cc3)n2)n[nH]1 [Tozasertib] (partner 0.1 µM) | not satisfied
* CN1CCN(CCOc2cc(OC3CCOCC3)c3c(Nc4c(Cl)ccc5c4OCO5)ncnc3c2)CC1 [Saracatinib] + CCNC(=O)c1noc(-c2cc(C(C)C)c(O)cc2O)c1-c1ccc(CN2CCOCC2)cc1 [Luminespib] (partner 0.01 µM) | not satisfied

We now examine a further compound.
Please determine if CN1CCN(CCOc2cc(OC3CCOCC3)c3c(Nc4c(Cl)ccc5c4OCO5)ncnc3c2)CC1 [Saracatinib] + O=C(c1cc(Cc2n[nH]c(=O)c3ccccc23)ccc1F)N1CCN(C(=O)C2CC2)CC1 [Olaparib] (partner 8 µM) is below 0.6 in terms of relative viability.
not satisfied

* * *

system: NCI-H1395; assay: relative viability (nuclei count vs DMSO), 5 days (fraction); higher = more cells survive; conditions: first compound 0.02 µM
Test readout: relative viability
Enter a number only.

- CN1CCN(CCOc2cc(OC3CCOCC3)c3c(Nc4c(Cl)ccc5c4OCO5)ncnc3c2)CC1 [Saracatinib] + CC(=O)c1c(C)c2cnc(Nc3ccc(N4CCNCC4)cn3)nc2n(C2CCCC2)c1=O [Palbociclib] (partner 0.5 µM): 0.606
- CN1CCN(CCOc2cc(OC3CCOCC3)c3c(Nc4c(Cl)ccc5c4OCO5)ncnc3c2)CC1 [Saracatinib] + COc1cccc2cc(-c3nc([C@H]4CC[C@H](C(=O)O)CC4)n4ncnc(N)c34)[nH]c12 [OSI-027] (partner 0.5 µM): 0.618
- CCNC(=O)c1noc(-c2cc(C(C)C)c(O)cc2O)c1-c1ccc(CN2CCOCC2)cc1 [Luminespib] + CS(=O)(=O)CCNCc1ccc(-c2ccc3ncnc(Nc4ccc(OCc5cccc(F)c5)c(Cl)c4)c3c2)o1 [Lapatinib] (partner 2 µM): 0.645
- CN1CCN(CCOc2cc(OC3CCOCC3)c3c(Nc4c(Cl)ccc5c4OCO5)ncnc3c2)CC1 [Saracatinib] + Cc1nc(Nc2ncc(C(=O)Nc3c(C)cccc3Cl)s2)cc(N2CCN(CCO)CC2)n1 [Dasatinib] (partner 0.075 µM): 0.394
- CCNC(=O)c1noc(-c2cc(C(C)C)c(O)cc2O)c1-c1ccc(CN2CCOCC2)cc1 [Luminespib] + NC(=O)Nc1cc(-c2cccc(F)c2)sc1C(=O)N[C@H]1CCCNC1 [AZD7762] (partner 0.2 µM): 0.374

# get_value(readout='relative viability', item= CN1CCN(CCOc2cc(OC3CCOCC3)c3c(Nc4c(Cl)ccc5c4OCO5)ncnc3c2)CC1 [Saracatinib] + Nc1nc2[nH]cc(CCc3ccc(C(=O)N[C@@H](CCC(=O)O)C(=O)O)cc3)c2c(=O)[nH]1 [Pemetrexed] (partner 0.2 µM) )
0.896

Also, CCNC(=O)c1noc(-c2cc(C(C)C)c(O)cc2O)c1-c1ccc(CN2CCOCC2)cc1 [Luminespib] + COc1cc2c(Oc3ccc(NC(=O)C4(C(=O)Nc5ccc(F)cc5)CC4)cc3F)ccnc2cc1OCCCN1CCOCC1 [Foretinib] (partner 0.25 µM) please.
0.805
